test_target: T1, GPPPPIDNGDITSFP(GGGK-biotin)
T1 construct: also called biotinylated 15-mer peptide; biotinylated 19-mer
T1 peptide: GPPPPIDNGDITSFPGGGK(Biotin)
assay_info: ELISA: biotinylated peptide captured on immobilized Neutravidin, antibody at 0.5 µg/ml, anti-human IgG-HRP/ABTS, OD 405 nm
Where no end group is shown, it is not given here. The star is where a group is joined. Biotin = O=C1N[C@H]2[C@H](CS[C@H]2CCCCC(=O)*)N1
measure_name: binding result

Query: Quick one: binding result of 7963/5998 (antibody, V domains shown, also called clone 5; H007963/K005998) VH: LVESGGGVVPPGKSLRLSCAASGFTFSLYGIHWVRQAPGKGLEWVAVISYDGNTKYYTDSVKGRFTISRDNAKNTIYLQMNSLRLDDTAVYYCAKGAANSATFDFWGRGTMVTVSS VL: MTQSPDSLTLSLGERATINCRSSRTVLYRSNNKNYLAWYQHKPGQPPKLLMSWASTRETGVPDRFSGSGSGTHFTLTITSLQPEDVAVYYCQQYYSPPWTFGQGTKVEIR ?
Result: binds

Query: Quick one: binding result of 7971/6005 (antibody, V domains shown, also called clone 14; H007971/K006005) VH: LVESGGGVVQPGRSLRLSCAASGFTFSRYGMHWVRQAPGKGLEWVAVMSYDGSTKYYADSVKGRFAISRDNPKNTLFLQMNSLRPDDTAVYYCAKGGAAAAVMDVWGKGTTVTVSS VL: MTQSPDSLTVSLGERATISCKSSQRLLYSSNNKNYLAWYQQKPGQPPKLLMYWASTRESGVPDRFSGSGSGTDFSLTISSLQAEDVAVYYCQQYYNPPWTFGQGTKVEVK ?
Result: binds
